Tested on: Staphylococcus aureus
Run description: Antibacterial activity against Staphylococcus aureus ATCC 6538 after 24 hrs by iodonitrotetrazolium chloride dye based microdilution method
Type: functional
Protocol conditions: ATCC 6538, 24 h
// classify(record): look up MIC in ranges bin A = under 30 µM, bin B = from 30 µM up to 90 µM, bin C = 90 µM and over

Compound	Group
CC1(C)c2ssc(=S)c2-c2ccccc2N1C(=O)CN1C(=O)CCC1=O	bin B
Cc1ccc2c(c1)-c1c(ssc1=S)C(C)(C)N2C(=O)CSc1nn(-c2ccccc2)c(=S)s1	bin A
CC1(C)S[C@@H]2[C@H](NC(=O)[C@H](N)c3ccccc3)C(=O)N2[C@H]1C(=O)O [AMPICILLIN]	bin C
CC1(C)c2ssc(=S)c2-c2cccc3c2N1C(=O)/C3=N/NC(N)=S	bin B
COc1cc2c3c(c1)-c1c(ssc1=S)C(C)(C)N3C(=O)/C2=C1\SC(=S)NC1=O	bin B
Cc1ccc2c(c1)-c1c(ssc1=S)C(C)(C)N2C(=O)c1cccnc1	bin A
CC1(C)c2ssc(=S)c2-c2ccccc2N1C(=O)CSC1=NCCS1	bin C
CN[C@@H]1[C@H](O[C@H]2[C@H](O[C@H]3[C@H](O)[C@@H](O)[C@H](N=C(N)N)[C@@H](O)[C@@H]3N=C(N)N)O[C@@H](C)[C@]2(O)C=O)O[C@@H](CO)[C@H](O)[C@H]1O [STREPTOMYCIN]	bin C
